# Target Entity: feline FcRn (FCN-F82W3, Acrobiosystems) (feline)
# Protocol: SPR Carterra, IgG coupled, pH 6.0

Binder	Readout Units	Kd
anti-NGF feline IgG1a, Fc variant Q311R (antibody, part only; not given: Anti-NGF variable domains, not shown: another chain or arm of the molecule; small tags and cut ends) Fc: PPEMLGGPSIFIFPPKPKDTLSISRTPEVTCLVVDLGPDDSDVQITWFVDNTQVYTAKTSPREEQFNSTYRVVSVLPILHRDWLKGKEFKCKVNSKSLPSPIERTISKAKGQPHEPQVYVLPPAQEELSRNKVSVTCLIKSFHPPDIAVEWEITGQPEPENNYRTTPPQLDSDGTYFVYSKLSVDRSHWQRGNTYTCSVSHEALHSHHTQKSLTQSPGK	nM	59.2
anti-NGF feline IgG1a, Fc variant T286E, S428R (antibody, part only; not given: anti-NGF variable domains, not shown: another chain or arm of the molecule; small tags and cut ends) Fc: PPEMLGGPSIFIFPPKPKDTLSISRTPEVTCLVVDLGPDDSDVQITWFVDNTQVYEAKTSPREEQFNSTYRVVSVLPILHQDWLKGKEFKCKVNSKSLPSPIERTISKAKGQPHEPQVYVLPPAQEELSRNKVSVTCLIKSFHPPDIAVEWEITGQPEPENNYRTTPPQLDSDGTYFVYSKLSVDRSHWQRGNTYTCSVRHEALHSHHTQKSLTQSPGK	nM	6.9
